tested on: sulfonylurea herbicide-resistant Lindernia dubia subsp. major Pennell; test: Paddy pot weeding test, flooded, two-leaf stage (Test Example 1); format: in vivo; settings: 1 g/are, three weeks after treatment, resistant biotype, Kawanishi Town, Yamagata Pref.
OBSERVABLE: R Lindernia dubia subsp. major Pennell (effect index)

Example entries begin here.
CCc1nc2ccc(N(C)C)nn2c1NC(=O)NS(=O)(=O)c1nc(OC)cc(OC)n1 = 5 (excellent 81 to 100)
CCSc1ccc2nc(C)c(NC(=O)NS(=O)(=O)c3nc(OC)cc(OC)n3)n2n1 = 5 (excellent 81 to 100)
CCc1ccc2nc(Cl)c(NC(=O)NS(=O)(=O)c3nc(OC)cc(OC)n3)n2n1 = 5 (excellent 81 to 100)
COc1cc(OC)nc(S(=O)(=O)NC(=O)Nc2c(Cl)nc3ccc(SC)nn23)n1 = 4 (high 61 to 80)
C/C=C/c1ccc2nc(Cl)c(S(=O)(=O)NC(=O)Nc3nc(OC)cc(OC)n3)n2n1 = 5 (excellent 81 to 100)

State recorded R Lindernia dubia subsp. major Pennell (effect index) for all listed compounds.
1. CCSc1ccc2nc(CC)c(S(=O)(=O)NC(=O)Nc3nc(OC)cc(OC)n3)n2n1
2. COc1cc(OC)nc(S(=O)(=O)NC(=O)Nc2c(C)nc3ccc(SC)nn23)n1
3. CCc1ccc2nc(C)c(S(=O)(=O)NC(=O)Nc3nc(OC)cc(OC)n3)n2n1
4. CCOc1ccc2nc(C)c(NC(=O)NS(=O)(=O)c3nc(OC)cc(OC)n3)n2n1
5. CCCc1ccc2nc(C)c(S(=O)(=O)NC(=O)Nc3nc(OC)cc(OC)n3)n2n1
6. CCSc1ccc2nc(C(F)(F)F)c(NC(=O)NS(=O)(=O)c3nc(OC)cc(OC)n3)n2n1

Result:
1: 4 (high 61 to 80); 2: 4 (high 61 to 80); 3: 5 (excellent 81 to 100); 4: 5 (excellent 81 to 100); 5: 5 (excellent 81 to 100); 6: 5 (excellent 81 to 100)

Problem: For the record "CCCc1nc2ccc(SC)nn2c1S(=O)(=O)NC(=O)Nc1nc(OC)cc(OC)n1" , what value of R Lindernia dubia subsp. major Pennell (effect index) is listed for sulfonylurea herbicide-resistant Lindernia dubia subsp. major Pennell?
Result: 4 (high 61 to 80)

// data source = patent US8399381B2
